# Test system: OVCAR-5
# assay.summary: NCI tumour cell line growth inhibition, 48 h
Active and inactive are the calls of the source. Cut-off read from the data, not from the text of the source: active = GI50 up to about 1.1 µM and inactive = higher. Where a SMILES comes first, the peptide text is derived from it. [ ]: non-standard residue; d: D form. The star is where a group is joined. Chg = N[CH](C(=O)O)C1CCCCC1; Cbz = O=C(OCc1ccccc1)*; OBn = c1ccc(CO*)cc1
Outcomes: active, inactive

{"columns": ["compound", "class"],
 "data": [
  ["N#Cc1c(-c2ccc(Cl)cc2)cc(-c2nc3ccccc3[nH]2)nc1N", "inactive"],
  ["NC1=Nc2cc(C(F)(F)F)ccc2Sc2nc3ccccc3n21", "inactive"],
  ["CC(=O)OCC1OC(n2c(-c3ccc(Cl)cc3)ccc(C#N)c2=S)C(OC(C)=O)C(OC(C)=O)C1OC(C)=O (stereo unspecified)", "inactive"],
  ["COc1ccc(Nc2nc(N)c(C(=O)c3cccs3)s2)cc1", "inactive"],
  ["CCOP(=O)(O)CN1CCNCCN(CP(=O)(O)OCC)CCNCC1", "inactive"],
  ["CN1COCc2cc3cc4c(cc3nc21)OCCO4", "inactive"],
  ["O=C1CCc2ccc3c(c21)CC1(Cc2ccccc2C1)C3", "inactive"],
  ["CCOc1ccc2nc3cc(/N=N/c4ccc(N)nc4N)ccc3c(N)c2c1", "inactive"],
  ["C/C(=N\\NC(=O)c1ccncc1)c1ccccc1Cl", "inactive"],
  ["O=c1c2ccccc2nc(-c2cc3c(cc2Cl)Sc2nccn2S3(=O)=O)n1-c1ccccc1", "inactive"],
  ["Cn1c2ccc(C3=NCCN3)cc2c2cc(C3=NCCN3)ccc21", "inactive"],
  ["C[C@]12CC[C@@H]3c4ccc(OCC(=O)O)cc4CC[C@H]3[C@@H]1CCC2=O", "inactive"],
  ["COC(=O)C(NC(=O)C(CC(=O)OCc1ccccc1)NC(=O)OCc1ccccc1)C1CCCCC1 (stereo unspecified) (Cbz-Asp(OBn)-[Chg]-OMe; configuration not given here)", "inactive"],
  ["O=C1CC2(CCN(CC3COc4ccccc4O3)CC2)C(=O)N1N1CCCCCC1 (stereo unspecified)", "inactive"],
  ["Nc1ccccc1NC(=O)c1ccc(CNC(=O)OCc2cccnc2)cc1", "active"],
  ["N#CC1=C(N)N2C(=O)/C(=C/c3ccccc3O)N=C2S1", "inactive"],
  ["CC1=C2C=CC(=O)C[C@@]2(C)CCC1", "inactive"],
  ["CCSC1=N/C(=C/c2ccccc2O)C(=O)N1", "inactive"],
  ["CC(C)CC(C(N)=O)C(=O)NC(Cc1ccccc1)NC(=O)CNC(=O)C(C)NC(=O)C(N)Cc1ccc(O)cc1 (stereo unspecified)", "inactive"],
  ["CCCCC(C)/C=C/C(O)=C1\\C(=O)O/C(=C\\C(=O)O)C1=O (stereo unspecified)", "inactive"],
  ["CCOc1cc2c(=O)oc3c(OC)ccc4ccc(c1OC)c2c43", "inactive"]
]}

---

# Tested on: ACHN
# assay.summary: NCI tumour cell line growth inhibition, 48 h
Activity calls are given as the source filed them. Cut-off read from the data, not from the text of the source: active = GI50 up to about 1.1 µM and inactive = higher.
Outcomes: active, inactive

{"columns": ["compound", "tested.system", "class"],
 "data": [
  ["Cc1cccc2nc3n(c12)C(=O)c1ccccc1-3", "ACHN", "inactive"],
  ["COc1ccc2[nH]c3c(C)c4cc[n+](COC(=O)c5ccccc5)cc4c(C)c3c2c1", "ACHN", "active"],
  ["O=[N+]([O-])c1cc(F)ccc1S(=O)(=O)c1ccccc1", "ACHN", "inactive"],
  ["CC(=O)c1ccc(NCN2C(=O)c3ccccc3C2=O)cc1", "ACHN", "inactive"],
  ["Cn1c(=S)c2nc(SCCCc3ccccc3)[nH]c2n(C)c1=O", "ACHN", "inactive"],
  ["Cc1cc(C)n(C(=O)C(C)Sc2nnc(SC(C)C(=O)n3nc(C)cc3C)s2)n1 (stereo not drawn)", "ACHN", "inactive"],
  ["Cn1c(=O)c2c(ncn2Cc2ccc(O)c([N+](=O)[O-])c2)n(C)c1=O", "ACHN", "inactive"],
  ["CC(=O)C1C(=O)C(=O)N(c2ccc([N+](=O)[O-])cc2)C1=O (stereo not drawn)", "ACHN", "inactive"],
  ["O=C1c2ccccc2C2CNC1(O)c1ccccc12 (stereo not drawn)", "ACHN", "inactive"],
  ["[N-]=[N+]=C1C(=O)C2CC3CC(C2)CC1C3", "ACHN", "inactive"],
  ["C[C@]12CC[C@@H]3c4ccc(OCC(=O)O)cc4CC[C@H]3[C@@H]1CCC2=O", "ACHN", "inactive"],
  ["OC(c1ccccc1Br)(c1ccccc1Br)C(F)(F)F", "ACHN", "inactive"],
  ["O=C(O)CSc1nnc(CCCCCCCCc2nnc(SCC(=O)O)o2)o1", "ACHN", "inactive"],
  ["OC12c3ccccc3C1CCCCCCCCCC21OCCO1 (stereo not drawn)", "ACHN", "inactive"],
  ["COC(=O)c1cc(Cl)ccc1NC(=O)C1CCCCC1", "ACHN", "inactive"],
  ["CN(C)CCCCN1CCc2c(n(C)c3ccccc23)C1=O", "ACHN", "inactive"],
  ["O=C(NO)C(=O)Nc1ccc(Cl)cc1[N+](=O)[O-]", "ACHN", "inactive"],
  ["Cn1c(CO)ccc1-c1ccc(-c2ccc(CO)[se]2)[se]1", "ACHN", "inactive"],
  ["Sc1nc2c(c(-c3nc(S)nc4c3CCCCCCCCCC4)n1)CCCCCCCCCC2", "ACHN", "inactive"],
  ["C=C1C(=O)O[C@H]2C1C[C@H](O)[C@@]1(C)OC1CC[C@@]1(C)O[C@H]21 (stereo partly drawn)", "ACHN", "inactive"],
  ["CCOC(=O)/C=C/c1nc(C#N)c(N)o1", "ACHN", "inactive"],
  ["CCC1=C(CC)C1(C#N)[N+](=O)[O-]", "ACHN", "inactive"],
  ["O=c1[nH]c(NCc2cccnc2)nc2[nH]cnc12", "ACHN", "inactive"]
]}

---

# Test system: HOP-62
# assay.summary: NCI tumour cell line growth inhibition, 48 h
The source made the active and inactive calls. Rule as the data show it: active = GI50 up to about 1.1 µM and inactive = higher. Non-standard residues stand in square brackets, D forms with d. Residues, ends and D or L forms follow the SMILES beside them. *: point of attachment. Ac5c = NC1(C(=O)O)CCCC1; Cbz = O=C(OCc1ccccc1)*; Boc = CC(C)(C)OC(=O)*; tBu = CC(C)(C)*
Outcomes: active, inactive

{"columns": ["compound", "class"],
 "data": [
  ["Cc1nc2ccccc2n1Cc1nnc2n1N=C(c1ccccc1)CS2", "inactive"],
  ["CC(=O)O[C@H]1CC[C@H]2[C@@H]3CCC4=C/C(=N/OCCN(C)C)CC[C@]4(C)[C@H]3CC[C@]12C", "inactive"],
  ["NCCN1CCCCCc2ccccc21", "inactive"],
  ["Cc1ccc(C2(C)CC/C(=N/N=C3/CCC(C)(c4ccc(C)c(C)c4)c4cc(C)c(C)cc43)c3cc(C)c(C)cc32)cc1C (stereo not given)", "inactive"],
  ["CC(=O)C1CC2(c3ccccc3)C(=O)c3ccccc3N2O1 (stereo not given)", "inactive"],
  ["CCOP(=O)(O)CN1CCNCCN(CP(=O)(O)OCC)CCNCC1", "inactive"],
  ["COC(=O)C(Cc1c[nH]c2ccccc12)NP(=O)(O)OCC1OC(n2cc(F)c(=O)[nH]c2=O)CC1O (stereo not given)", "inactive"],
  ["CCOC(=O)C(C(=O)OCC)P(=S)(S)c1ccccc1 (stereo not given)", "inactive"],
  ["CC1=CC2=C(C)C3(CC3)[C@@](C)(O)C(=O)C2=C1", "active"],
  ["COC(O)C(=O)c1c2c(cc3c1CCC3)CCCC2 (stereo not given)", "inactive"],
  ["O=C(NO)C(=O)Nc1ccc(Cl)cc1[N+](=O)[O-]", "inactive"],
  ["CCn1c(CCl)nc2c1C(=O)c1ccccc1C2=O", "inactive"],
  ["Cn1c2ccccc2n2c(=O)c3c(c(C#N)c12)CCCC3", "inactive"],
  ["Cc1ccccc1C(=O)N/N=C/c1ccc(Sc2nccn2C)c([N+](=O)[O-])c1", "inactive"],
  ["NC1=Nc2cc(C(F)(F)F)ccc2Sc2nc3ccccc3n21", "inactive"],
  ["O=c1c2ccccc2nc(-c2ccccc2)n1NC(=S)Nc1ccccc1", "inactive"],
  ["CC(C)/C(Cl)=N\\OC(=O)Nc1cccc(Cl)c1", "inactive"],
  ["C[C@]12CC[C@@H]3c4ccc(OCC(=O)O)cc4CC[C@H]3[C@@H]1CCC2=O", "inactive"],
  ["CC1=C2C(=CC(C)(CO)C2O)C(=O)C(C)(O)C12CC2 (stereo not given)", "active"],
  ["Cc1cc(Cl)ccc1NC1=NC(=O)C(CC(=O)Nc2ccc([N+](=O)[O-])cc2[N+](=O)[O-])S1 (stereo not given)", "inactive"],
  ["O=C1OC[C@@H]2Cc3c([nH]c4ccccc34)[C@@H](c3cc(O)c(O)c(O)c3)N12", "inactive"],
  ["COc1cc(Nc2n[nH]c(NS(=O)(=O)c3cc(C)c(Cl)cc3S)n2)cc(OC)c1OC", "inactive"],
  ["CCCCCCCC1C(C)c2c([nH]c3ccccc23)C2C(=O)N(c3ccc(OC)cc3)C(=O)C21 (stereo not given)", "inactive"],
  ["O=C(NN=C1CCN(Cc2ccccc2)CC1)C(O)(c1ccccc1)c1ccccc1", "inactive"],
  ["O=C1C=C(c2ccccc2)NC1(c1ccccc1)c1cc(-c2ccccc2)[nH]c1-c1ccccc1 (stereo not given)", "inactive"],
  ["COC(=O)C1(NC(=O)C(Cc2ccccc2)NC(=O)C(NC(=O)C(CCCCNC(=O)OC(C)(C)C)NC(=O)C(Cc2c[nH]c3ccccc23)NC(=O)C(Cc2ccccc2)NC(=O)OCc2ccccc2)C(C)OC(C)(C)C)CCCC1 (stereo not given) (Cbz-FWK(Boc)T(tBu)F[Ac5c]-OMe; configuration not given here)", "inactive"],
  ["Nc1nc(N)c2ncn(CC(CO)CC(c3ccccc3)P(=O)(O)O)c2n1 (stereo not given)", "inactive"],
  ["CCOP(=O)(OCC)OC1c2[nH]ccc2-c2cc(C(=O)OC)[nH]c2C1OC (stereo not given)", "inactive"],
  ["COC(=O)NC12CC3CC(CC(F)(C3)C1)C2", "inactive"],
  ["Cc1cc(C)c(O)c(Cc2cccc(Cc3cc(C)cc(C)c3O)c2O)c1", "inactive"],
  ["O=c1[nH]nc(Cc2ccccc2)n1O", "inactive"],
  ["CC(C)N(C(=O)C12C3C4C1C1C2C3C41C(=O)N(C(C)C)C(C)C)C(C)C (stereo not given)", "inactive"],
  ["CC1(C)Cc2c(oc3ncnc(N)c23)CS1", "inactive"],
  ["COC1=C(N)C(=O)c2nc(C)ccc2C1=O", "inactive"],
  ["COc1ccc(S(=O)(=O)NNS(C)(=O)=O)cc1OC", "inactive"],
  ["O=c1c2ccccc2nc(-c2cc3c(cc2Cl)Sc2nccn2S3(=O)=O)n1-c1ccccc1", "inactive"],
  ["CC(C)c1ccc(Cc2ccc(C(C)C)c(NC(=O)C(=O)Cc3cnc4ccccc4n3)c2C(C)C)c(C(C)C)c1NC(=O)C(=O)Cc1cnc2ccccc2n1", "inactive"],
  ["COc1cccc2c1-c1c(OC)cccc1SS2", "inactive"],
  ["C=C1C(=O)O[C@@]23C1CC[C@@H](C)C2CC[C@@]1(C)OC31 (stereo not given in full)", "inactive"],
  ["CN(C)CCCN1c2ccccc2CCc2cc([N+](=O)[O-])ccc21", "inactive"]
]}
